# SYSTEM: HIF-2α (Homo sapiens)
# Construct: host or cells: 786-O cells stably transduced with Cignal Lenti HIF Luc Reporter (only the reporter was introduced, not HIF-2α)
# METHOD_NOTES: HIF-2α luciferase reporter assay in HIF-Luc-786-O cells
# Type: cell-based
# RUN_CONDITIONS: Table 3, 20 hours incubation
pIC50: −log10 of the molar value.
REPORTED_METRIC: pIC50

Please review the entries below; each comes with its answer.
# MOLECULE, pIC50
rows = [
    ("N#Cc1cc(F)cc2c1[C@@H](c1ccc(-c3ccccc3CN)c3c1CC(F)(F)[C@H]3O)CC[C@@H]2F [Example 165]", "6.00 to 7.00"),
    ("Cc1nc(N)ccc1-c1ccc([C@H]2C[C@H](F)[C@H](F)c3cc(F)cc(C#N)c32)c2c1[C@H](O)C(F)(F)C2 [Example 216]", "> 7.00"),
    ("Cc1ccncc1-c1ccc([C@H]2CC[C@H](F)c3cc(F)cc(C#N)c32)c2c1[C@H](O)C(F)(F)C2 [Example 241]", "> 7.00"),
]

API: the following record is the query input.
Given the entry Cn1nncc1-c1ccc([C@H]2CC[C@H](F)c3cc(F)cc(C#N)c32)c2c1[C@H](O)C(F)(F)C2 [Example 147] , report its measured pIC50.
> 7.00

* * *

So I've got a bunch of molecules here, and I need their pIC50 values.
# SYSTEM: Histidine tagged HIF-2α protein containing PAS-B domain (240-350) (Homo sapiens, UniProt Q99814)
# Construct: HIF-2α protein containing PAS-B domain (240-350); made in house
# METHOD_NOTES: HIF-2α Scintillation Proximity Assay (SPA) binding assay
# RUN_CONDITIONS: Table 1; 50 nM HIF-2α protein, 25 nM 3H-tracer
pIC50: −log10 of the molar value.

Please review the entries below; each comes with its answer.
# MOLECULE, REPORTED_METRIC, RESULT
measured = [
    ("N#Cc1c(S(N)(=O)=O)ccc(N2CCCc3cc(F)cc(F)c32)c1C(F)F [Example 72]", "pIC50", "< 6.00"),
    ("CS(=O)(=O)c1ccc(N2CCCc3cc(F)cc(C#N)c32)c2c1[C@H](O)C(F)(F)C2 (racemic) [Example 31]", "pIC50", "6.00 to 7.00"),
]

# batch size: 6; output pIC50 per entry
1. CC(O)(c1ccc(N2CCCc3cc(F)cc(C#N)c32)c([N+](=O)[O-])c1)C(F)(F)F (centres unmarked) [Example 59]
2. N#Cc1cc(F)cc2c1N(c1ccc(C(F)(F)F)c(Cl)c1C#N)CCC2 [Example 29]
3. Cn1nccc1-c1ccc([C@H]2CCCc3cc(F)cc(C#N)c32)c2c1[C@H](O)C(F)(F)C2 [Example 116]
4. O=[N+]([O-])c1cc(C(O)(C(F)(F)F)C(F)(F)F)ccc1N1CCCc2cc(F)cc(F)c21 [Example 70]
5. O=[N+]([O-])c1cc(S(=O)(=O)C(F)(F)F)ccc1N1CCOc2cc(F)cc(F)c21 [Example 73]
6. CC(O)(c1ccc(N2CCCc3cc(F)cc(F)c32)c([N+](=O)[O-])c1)C(F)(F)F (centres unmarked) [Example 87]

1: < 6.00; 2: 6.00 to 7.00; 3: > 7.00; 4: < 6.00; 5: < 6.00; 6: < 6.00

* * *

# SYSTEM: HIF-2α (Homo sapiens)
# Construct: host or cells: 786-O cells stably transduced with Cignal Lenti HIF Luc Reporter (only the reporter was introduced, not HIF-2α)
# METHOD_NOTES: HIF-2α luciferase reporter assay in HIF-Luc-786-O cells
# Format: cell-based
# RUN_CONDITIONS: Table 1, 20 hours incubation
So I've got a bunch of compounds here, and I need their IC50 values.

Please review the entries below; each comes with its answer.
# COMPOUND, REPORTED_METRIC, RESULT
rows = [
    ("O=S1(=O)c2ccc(N3CCCc4cc(F)cc(F)c43)c(Cl)c2C(F)C1(F)F (stereo not shown)", "IC50", "> 1000 nM"),
    ("O=S(=O)(c1ccc(N2CCCc3cc(F)cc(F)c32)c2c1C(O)C(F)(F)C2)C(F)(F)F (stereo not shown)", "IC50", "100 to 1000 nM"),
    ("CS(=O)(=O)c1ccc(C2CCCc3cc(F)cc(C#N)c32)c2c1[C@H](O)[C@H](F)C2 (stereo in doubt)", "IC50", "< 100 nM"),
    ("O=S(=O)(c1ccc(N2CCCc3cc(F)cc(F)c32)c2c1C(O)CC2)C(F)(F)F (stereo not shown)", "IC50", "> 1000 nM"),
    ("N#Cc1c(S(N)(=O)=O)ccc(N2CCCc3cc(F)cc(F)c32)c1C(F)F", "IC50", "> 1000 nM"),
]

# batch size: 5; output IC50 per entry
1. O=S(=O)(c1ccc([C@H]2CCCc3cc(F)cc(F)c32)c2c1[C@H](O)[C@H](F)C2)C(F)(F)F
2. CC(O)(c1ccc(N2CCCc3cc(F)cc(C#N)c32)c([N+](=O)[O-])c1)C(F)(F)F (stereo not shown)
3. N#Cc1cc(F)cc2c1N(c1ccc(C(F)(F)F)c(Cl)c1C#N)CCC2
4. CS(=O)(=O)c1ccc(N2CCCc3cc(F)cc(F)c32)c(Cl)c1C#N
5. COC(=O)c1c(S(=O)(=O)C(F)(F)F)ccc(N2CCCc3cc(F)cc(F)c32)c1Cl

["< 100 nM", "> 1000 nM", "100 to 1000 nM", "> 1000 nM", "> 1000 nM"]

# batch size: 7; output IC50 per entry
1. O=S(=O)(c1ccc([C@@H]2CCOc3cc(F)cc(F)c32)c2c1[C@H](O)[C@H](F)C2)C(F)(F)F
2. CS(=O)(=O)c1ccc([C@H]2CCCc3cc(F)cc(F)c32)c2c1[C@H](O)C(F)(F)C2
3. CS(=O)(=O)c1ccc(N2CCOc3cc(F)cc(C#N)c32)c2c1[C@H](O)[C@H](F)C2
4. N#Cc1cc(F)cc2c1[C@@H](c1ccc(Cl)c3c1CC(F)(F)[C@H]3O)CCC2
5. O=S(=O)(c1ccc(N2CCCc3cc(F)cc(F)c32)c2c1C(F)C(F)(F)C2)C(F)(F)F (stereo not shown)
6. Cc1c(F)ccc2c1N(c1ccc(S(=O)(=O)C(F)(F)F)cc1[N+](=O)[O-])CCC2
7. CS(=O)(=O)c1ccc(N2CCCc3cc(F)cc(C#N)c32)c2c1[C@H](O)C(F)(F)C2 (racemic)

1. > 1000 nM
2. 100 to 1000 nM
3. > 1000 nM
4. 100 to 1000 nM
5. > 1000 nM
6. > 1000 nM
7. 100 to 1000 nM

* * *

# SYSTEM: Histidine tagged HIF-2α protein containing PAS-B domain (240-350) (Homo sapiens, UniProt Q99814)
# Construct: HIF-2α protein containing PAS-B domain (240-350); made in house
# METHOD_NOTES: HIF-2α Scintillation Proximity Assay (SPA) binding assay
# RUN_CONDITIONS: Table 1; 50 nM HIF-2α protein, 25 nM 3H-tracer
REPORTED_METRIC: IC50

Please review the entries below; each comes with its answer.
# COMPOUND, REPORTED_METRIC, RESULT
measured = [
    ("CC1CCN(c2ccc(S(=O)(=O)C(F)(F)F)c3c2C[C@@H](F)[C@H]3O)c2c(F)cc(F)cc21 (stereo partly shown)", "IC50", "100 to 1000 nM"),
    ("N#Cc1cc(F)cc2c1N(c1ccc(S(=O)(=O)C(F)(F)F)c3c1C[C@@H](F)[C@H]3O)CCO2", "IC50", "100 to 1000 nM"),
    ("O=S1(=O)c2ccc(C3CCCc4cc(F)cc(F)c43)c(Cl)c2C(O)C1(F)F (stereo not shown)", "IC50", "> 1000 nM"),
]

API: the following record is the query input.
Given the entry CC(C)(O)c1cc(N2CCCc3cc(F)cc(F)c32)ccc1S(C)(=O)=O , report its measured IC50.
> 1000 nM

* * *

# SYSTEM: HIF-2α (Homo sapiens, UniProt Q99814)
# Construct: host or cells: 786-O cells stably transduced with Cignal Lenti HIF Luc Reporter (only the reporter was introduced, not HIF-2α)
# Sequence (Q99814 whole entry): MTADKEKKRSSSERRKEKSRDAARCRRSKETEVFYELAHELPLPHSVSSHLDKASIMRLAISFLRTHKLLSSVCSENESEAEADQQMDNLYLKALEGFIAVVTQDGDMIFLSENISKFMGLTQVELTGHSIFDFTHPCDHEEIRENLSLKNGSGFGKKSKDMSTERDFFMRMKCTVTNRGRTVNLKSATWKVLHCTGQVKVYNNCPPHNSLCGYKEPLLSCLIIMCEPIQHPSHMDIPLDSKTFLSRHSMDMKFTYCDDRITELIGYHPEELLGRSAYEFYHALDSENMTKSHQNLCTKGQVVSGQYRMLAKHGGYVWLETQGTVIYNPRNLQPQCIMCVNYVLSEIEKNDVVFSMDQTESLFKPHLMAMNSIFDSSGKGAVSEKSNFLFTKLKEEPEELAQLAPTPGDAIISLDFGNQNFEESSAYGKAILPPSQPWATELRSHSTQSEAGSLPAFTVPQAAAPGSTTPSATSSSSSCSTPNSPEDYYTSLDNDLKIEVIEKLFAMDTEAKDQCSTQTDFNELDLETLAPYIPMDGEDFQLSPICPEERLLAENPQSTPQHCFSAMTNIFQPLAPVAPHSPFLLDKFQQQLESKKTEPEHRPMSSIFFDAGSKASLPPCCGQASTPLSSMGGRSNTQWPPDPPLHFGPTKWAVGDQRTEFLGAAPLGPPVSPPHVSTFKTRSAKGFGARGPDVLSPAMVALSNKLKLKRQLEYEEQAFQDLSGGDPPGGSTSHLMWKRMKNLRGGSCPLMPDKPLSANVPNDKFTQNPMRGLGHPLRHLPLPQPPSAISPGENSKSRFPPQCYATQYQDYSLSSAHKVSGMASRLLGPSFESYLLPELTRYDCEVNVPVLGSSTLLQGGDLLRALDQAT
# METHOD_NOTES: HIF-2α luciferase reporter assay in HIF-Luc-786-O cells
# Type: cell-based
# RUN_CONDITIONS: Table 1, 20 hours incubation
pIC50: −log10 of the molar value.
REPORTED_METRIC: pIC50

# COMPOUND, pIC50
records = [
    ("N#Cc1cc(F)cc2c1[C@@H](c1ccc(C(F)(F)F)c3c1OC(F)(F)[C@H]3O)CCC2 [Example 91]", "> 7.00"),
    ("COC(=O)c1cc(N2CCCc3cc(F)cc(F)c32)ccc1S(=O)(=O)C(F)(F)F [Example 77]", "< 6.00"),
    ("O=[N+]([O-])c1cc(S(=O)(=O)C(F)(F)F)ccc1N1CCCc2ccc(C(F)F)cc21 [Example 67]", "< 6.00"),
]

API: the following record is the query input.
Given the entry CC1(O)c2c(S(C)(=O)=O)ccc([C@H]3CCCc4cc(F)cc(F)c43)c2CC1(F)F (stereo partly shown) [Example 113] , report its measured pIC50.
< 6.00
